Tested on: HOP-62 NSCLC
test.method.notes: NCI-60 one-dose screen, 48 h (100 = growth as untreated, 0 = no growth, -100 = all killed)
cond: 10 µM unless noted
Procedure: Growth inhibition of the HOP-62 human Non-Small Cell Lung tumor cell line is measured as a screen for anti-cancer activity. Cells are grown in 96 well plates and exposed to the test compound for 48 hours. Compounds are tested at a single concentration, which is 10^-5 M for most compounds. The reported endpoint is percent growth (GI% or GIPRCNT), where numbers from 0 - 100% represent growth inhibition, and numbers from -100% - 0 represent cell death. […]
The panel holds about 83,000 compounds, 20% with a hit somewhere; the sample as a whole holds those more often.
experimental.endpoint: growth (%)

[[record]]
compound_structure = "Cc1c(C(C)(C)O)cn2ncnc(Oc3ccc(NC(=O)Nc4ccc(Cl)c(C(F)(F)F)c4)c(F)c3)c12"
assay_result = 101

[[record]]
compound_structure = "Cn1cc(-c2nc3c(F)cc4[nH]ncc4c3c3c2CCCC3)c(C(F)(F)F)n1"
assay_result = 31

[[record]]
compound_structure = "CCOC(=O)NCCCC(=O)NCCc1ccccc1"
assay_result = 108

[[record]]
compound_structure = "COc1ccc(C/C(C)=C(\\c2ccc(O)cc2)c2ccc(OCCN3CCCCC3)cc2)cc1"
assay_result = 95.6

[[record]]
compound_structure = "O=C(/C=C/c1cccc(Oc2ccccc2)c1)c1ccc(Nc2nc(Nc3ccc(F)cc3)nc(Nc3ccc(Cl)cc3)n2)cc1"
assay_result = 104

[[record]]
compound_structure = "COc1cc(C=C2C(=O)NC(=S)NC2=O)cc(CN2CCCC2)c1O"
assay_result = 103


====

Test system: SK-OV-3 ovarian
test.method.notes: NCI-60 one-dose screen, 48 h (100 = growth as untreated, 0 = no growth, -100 = all killed)
cond: 10 µM unless noted
This is part of a sample that, as a whole, favours compounds with a hit. Of some 83,000 tested, about 20% had one in any assay. Active and inactive are the calls of the source. Rule for the calls: active = growth percent below 10; inactive = the rest.
experimental.endpoint: growth

[[record]]
molecule = "COc1ccc(-c2cc(-c3cc(OC)ccc3OC)nc(SCC(C)=O)c2C#N)cc1"
experimental_endpoint = "growth"
assay_result = "59.9% (inactive)"

[[record]]
molecule = "CN(C)c1ccc(CNCCO)cc1"
experimental_endpoint = "growth"
assay_result = "71.4% (inactive)"

[[record]]
molecule = "CC1SC(c2ccccc2O)N(NC(=O)CCC(=O)c2nc3ncccc3[nH]2)C1=O (stereo not given)"
experimental_endpoint = "growth"
assay_result = "92.3% (inactive)"

[[record]]
molecule = "COc1cc([C@@H](CCO)C[C@H](C)c2ccc3ccccc3c2)cc(OC)c1OC"
experimental_endpoint = "growth"
assay_result = "33.8% (inactive)"

[[record]]
molecule = "O=C(NCc1ccc(Cn2c(=O)sn(-c3ccccc3)c2=O)cc1)OCc1ccc2cccc(O)c2n1"
experimental_endpoint = "growth"
assay_result = "75.8% (inactive)"


====

System: HCT-116 colon
test.method.notes: NCI-60 one-dose screen, 48 h (100 = growth as untreated, 0 = no growth, -100 = all killed)
cond: 10 µM unless noted
About 83,000 compounds went through this panel and 20% of them were active in at least one assay; those are over-represented in the sample as a whole.
experimental.endpoint: growth (%)

[[record]]
compound = "O=C(C[C@]1(O)C(=O)Nc2ccc(Br)cc21)c1ccco1"
experimental_endpoint = "growth"
assay_result = 105

[[record]]
compound = "Oc1c(CN2CCC(N3CCOCC3)CC2)cc(Cc2cc(CN3CCC(N4CCOCC4)CC3)c(O)c3ncccc23)c2cccnc12"
experimental_endpoint = "growth"
assay_result = 11.5

[[record]]
compound = "COc1cc(N2C(=O)[C@H](Cl)C2c2ccc(SC)cc2)cc(OC)c1OC (stereo partly drawn)"
experimental_endpoint = "growth"
assay_result = -17.2

